Where do these numbers come from? They come from patent US7273848B2.

Entries and their He (%) free values follow.
assay: Circular dichroism helicity determination; format: physicochemical; settings: percent helicity; free, unbound peptide 5 μM in 5 mM phosphate buffer, pH 7.4, 37° C.
No end group written: not given here.
Numeric answer only, unit % assumed.

Before answering, review these 5 worked examples.
| SUBSTANCE | UNIT_INFO | He (%) free |
| --- | --- | --- |
| Ac-PLLDLFRELLEELKQKLK-NH2 [compound 197] | % | 43 |
| EWLEAFYKKVLEKLKELF [peptide 246, reference compound] | % | 18 |
| VLDLFRELLNELLEALKQKLK [compound 67] | % | 81 |
| Ac-PVLDLFRELLEEWKQKLK-NH2 [compound 215] | % | 28 |
| DWLKAFYDKVFEKFKEFF [peptide 245, reference compound] | % | 38 |

Recorded He (%) free (substance Ac-PVLDLFRELLEELKQKLK-NH2 [compound 193] ): 34

Recorded He (%) free (substance PAADAFREAANEAAEAAKQKAK [compound 105] ): 29

Recorded He (%) free (substance PVLELFENLLERLGDALQKKLK [peptide 148] ): 10

----------
Entries and their He (%) free values follow.
assay: Circular dichroism helicity determination; format: physicochemical; conditions: percent helicity; free, unbound peptide 5 μM in 5 mM phosphate buffer, pH 7.4, 37° C.
No end group written: not given here.
Numeric answer only, unit % assumed.

| SUBSTANCE | He (%) free |
| --- | --- |
| Ac-PVLDLFKELLEELKQKLK-NH2 [compound 192] | 36 |
| Ac-PVLDLFRELWEELKQKLK-NH2 [compound 199] | 35 |
| PVLELFENLLERLLDWLQKKLK [compound 160] | 65 |
| EWLKAFYEKVLEKLKELF [peptide 248, reference compound] | 18 |

Recorded He (%) free (substance PVLDLFRNLLEELLEALQKKLK [compound 66] ): 64

Recorded He (%) free (substance PVLDLFNELLRELLEALQKKLK [compound 40] ): 66

----------
experiment: Circular dichroism helicity determination; format: physicochemical; details: percent helicity; peptide-SUV complexes (20:1 EPC:Chol., Ri=30 and Ri=50), 37° C.
No end group written: not given here.
Entries and their He (%) SUVs values follow.
Numeric answer only, unit % assumed.

Before answering, review these 4 worked examples.
| SUBSTANCE | RECORDED_METRIC | REPORTED_VALUE |
| --- | --- | --- |
| PAADAFREAANEAAEAAKQKAK [compound 105] | He (%) SUVs | 32 |
| PVLDLFRELWNELLEALKQKLK [peptide 15] | He (%) SUVs | 64 |
| Ac-DWLKAFYDKVAEKLKEAF-NH2 [compound 240, reference compound] | He (%) SUVs | 59 |
| Ac-PVLDLFRELWEELKQKLK-NH2 [compound 199] | He (%) SUVs | 80 |

Here's the next entry for you.
Recorded He (%) SUVs (substance PLDLFRELLNELLEALKQKLK [compound 85] ): 64

----------
Entries and their ACTIVITY (%) LCAT values follow.
molecular target: LCAT (purified from human plasma) (Homo sapiens); construct: from tissue; host or cells: human plasma; assay: LCAT activation assay; assay type: biochemical; details: LCAT activation as compared with native human ApoA-I (= 100%), equivalent masses
Sequence (P04180 25-440): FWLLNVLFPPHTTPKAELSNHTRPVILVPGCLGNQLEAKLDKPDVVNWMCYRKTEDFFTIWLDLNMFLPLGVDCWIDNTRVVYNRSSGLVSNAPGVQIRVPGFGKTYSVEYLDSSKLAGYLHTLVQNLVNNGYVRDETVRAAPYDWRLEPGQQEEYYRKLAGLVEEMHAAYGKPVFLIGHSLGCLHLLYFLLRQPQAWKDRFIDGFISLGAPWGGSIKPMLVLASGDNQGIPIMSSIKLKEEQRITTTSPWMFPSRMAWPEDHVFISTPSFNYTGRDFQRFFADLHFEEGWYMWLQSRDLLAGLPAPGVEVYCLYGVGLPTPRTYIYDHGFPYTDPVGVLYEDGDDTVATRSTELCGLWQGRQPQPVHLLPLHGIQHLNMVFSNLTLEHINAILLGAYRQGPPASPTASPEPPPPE
No end group written: not given here.
Write your answer as a measured quantity: the number, then the unit.

| SUBSTANCE | REPORTED_VALUE |
| --- | --- |
| Ac-PVLELFRELLEELKQKLK-NH2 [compound 194] | 88% |
| Ac-EWLKAFYEKVLEKLKELF-NH2 [peptide 238, reference compound] | 19% |
| PVLELFENLLERLLEALQKKLK [compound 161] | 27% |
| PVLDLFKELLNELLEALKQKLK [peptide 7] | 83% |
| LVLDLFRELLNELLEALKQKLK [compound 59] | 17% |

Here's the next entry for you.
Recorded ACTIVITY (%) LCAT (substance PVLDLFRELGNELLEALKQKLK [peptide 9] ): 83%
